# assay_target: human 11β-HSD1 (Homo sapiens, UniProt P28845)
# Construct: expressed in transfected cells
# Sequence (P28845 whole entry): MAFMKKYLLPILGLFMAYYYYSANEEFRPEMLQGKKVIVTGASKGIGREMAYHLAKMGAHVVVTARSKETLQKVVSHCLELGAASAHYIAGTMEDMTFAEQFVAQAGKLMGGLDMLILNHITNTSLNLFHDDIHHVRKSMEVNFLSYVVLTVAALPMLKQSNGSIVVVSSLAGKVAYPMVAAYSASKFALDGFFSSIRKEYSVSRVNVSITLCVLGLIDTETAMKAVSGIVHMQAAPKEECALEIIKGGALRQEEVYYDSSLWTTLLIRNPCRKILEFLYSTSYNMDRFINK
# procedure_details: Inhibition of 11β-HSD1-dependent oxoreduction of cortisone in HEK-293 cell lysates
# Assay type: biochemical
# measurement_context: human enzyme, 200 nM cortisone; read-out: IC50, 11β-HSD1-dependent conversion of cortisone to cortisol

{"molecule": "CC(CO)CCC[C@@H](C)[C@H]1CC[C@H]2[C@@H]3[C@@H](O)C=C4C[C@@H](O)CC[C@]4(C)[C@H]3CC[C@]12C (stereo partly drawn) [7β27OHC, 7β,27-dihydroxycholesterol]", "IC50": "≥ 3 µM"}

###

# IC50 per entry
# assay_target: 11β-HSD2 (Homo sapiens, UniProt P80365)
# Sequence (P80365 whole entry): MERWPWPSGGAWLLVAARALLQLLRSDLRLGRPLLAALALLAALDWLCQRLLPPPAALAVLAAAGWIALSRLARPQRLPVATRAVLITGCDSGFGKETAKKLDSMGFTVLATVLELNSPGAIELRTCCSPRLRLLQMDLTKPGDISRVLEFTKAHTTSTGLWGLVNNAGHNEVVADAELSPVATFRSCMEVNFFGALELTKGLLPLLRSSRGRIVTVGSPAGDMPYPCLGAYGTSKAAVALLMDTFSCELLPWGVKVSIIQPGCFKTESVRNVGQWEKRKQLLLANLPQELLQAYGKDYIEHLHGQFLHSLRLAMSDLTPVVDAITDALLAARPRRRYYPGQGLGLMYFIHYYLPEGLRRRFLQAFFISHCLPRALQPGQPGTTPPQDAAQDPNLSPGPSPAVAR
# procedure_details: Inhibition of 11β-HSD2-dependent oxidation of cortisol in HEK-293 cell lysates
# measurement_context: human enzyme, 50 nM cortisol, 10 min, 37°C; read-out: IC50, 11β-HSD2-dependent conversion of cortisol to cortisone
assay_readout: IC50

{"compound": "CC(CO)CCC[C@@H](C)[C@H]1CC[C@H]2[C@@H]3[C@@H](O)C=C4C[C@@H](O)CC[C@]4(C)[C@H]3CC[C@]12C (stereo partly drawn) [7β27OHC, 7β,27-dihydroxycholesterol]", "assay_target": "11β-HSD2 (Homo sapiens, UniProt P80365)", "result": "11 nM"}
{"compound": "CC(CO)CCC[C@@H](C)[C@H]1CC[C@H]2[C@@H]3C(=O)C=C4C[C@@H](O)CC[C@]4(C)[C@H]3CC[C@]12C (some centres unmarked) [7k27OHC, 7-keto,27-hydroxycholesterol]", "assay_target": "11β-HSD2 (Homo sapiens, UniProt P80365)", "result": "15 nM"}
